These measurements were taken from PubChem BioAssay (NCATS).

# TEST DESCRIPTION: qHTS of pediatric cancer cell lines to identify multiple opportunities for drug repurposing: Primary screen for MG 63 (6-TG R) cells (AID 1347105); further: nearly all actives have a fitted effect of over 50% in size; further: potency means the concentration at half of the fitted maximal effect
# TEST PARAMETERS: MG 63 (6-TG R) viability, CellTiter-Glo, 48 h; series mostly up to 46 µM
Results filed as inconclusive are left out. The source made the active and inactive calls. The call rests on the fitted dose curve; in most records, active means well fitted cell-killing curve with a large enough effect; inconclusive means small, poorly fitted or top-dose-only effect; inactive means no such curve, though single readings can be large or run the other way.
REPORTED METRIC: Potency

Worked set:
COMPOUND SMILES	REPORTED METRIC	VAL
Cc1cc(-c2ncc(CC(=O)Nc3ccc(-c4cnccn4)cn3)cc2C)ccn1	Potency	inactive
O=C(Nc1cccc2c(=O)cc(-c3nn[nH]n3)oc12)c1ccc(OCCCCc2ccccc2)cc1	Potency	inactive
Nc1ccc(-c2ccc3ncc4ccc(=O)n(-c5cccc(C(F)(F)F)c5)c4c3c2)cn1	Potency	900 pM (active)
NC(=O)c1ccc(N(C(N)=O)c2c(F)cccc2F)nc1-c1ccc(F)cc1F	Potency	inactive

Proceed to the following item.
Query block: I would be grateful if you could share the reported Potency for `CCOC(=O)c1c(CSc2ccccc2)n(C)c2cc(Br)c(O)c(CN(C)C)c12` .
Result block: inactive
